Test system: Streptococcus pneumoniae
Protocol Text: experimental bacterial infection in mice, ED50
Assay type: in vivo
Settings: two doses, subcutaneously
Recorded Endpoint: ED50 (mg/kg/2)

molecule="CN[C@H](CC(C)C)C(=O)N[C@H]1C(=O)N[C@@H](CC(N)=O)C(=O)N[C@H]2C(=O)N[C@H]3C(=O)N[C@H](C(=O)N[C@H](C(=O)O)c4cc(O)cc(O)c4-c4cc3ccc4O)[C@H](O)c3ccc(c(Cl)c3)Oc3cc2cc(c3O[C@@H]2O[C@H](CO)[C@@H](O)[C@H](O)[C@H]2O[C@H]2C[C@](C)(NC(=O)CC(C)Oc3ccccc3)[C@H](O)[C@H](C)O2)Oc2ccc(cc2Cl)[C@H]1O (stereo partly shown)" target_of_assay="Streptococcus pneumoniae" display_unit=mg/kg/2 assay_result=1.8
molecule="CCCCCCCCc1ccc(C(=O)N[C@@]2(C)C[C@H](O[C@H]3[C@H](Oc4c5cc6cc4Oc4ccc(cc4Cl)[C@@H](O)[C@@H](NC(=O)[C@@H](CC(C)C)NC)C(=O)N[C@@H](CC(N)=O)C(=O)N[C@H]6C(=O)N[C@H]4C(=O)N[C@H](C(=O)N[C@H](C(=O)O)c6cc(O)cc(O)c6-c6cc4ccc6O)[C@H](O)c4ccc(c(Cl)c4)O5)O[C@H](CO)[C@@H](O)[C@@H]3O)O[C@@H](C)[C@H]2O)cc1 [Compound 2, N^van --[4-(n-octyl)benzoyl]vancomycin]" target_of_assay="Streptococcus pneumoniae" display_unit=mg/kg/2 assay_result=0.72
molecule="CN[C@H](CC(C)C)C(=O)N[C@H]1C(=O)N[C@@H](CC(N)=O)C(=O)N[C@H]2C(=O)N[C@H]3C(=O)N[C@H](C(=O)N[C@H](C(=O)O)c4cc(O)cc(O)c4-c4cc3ccc4O)[C@H](O)c3ccc(c(Cl)c3)Oc3cc2cc(c3O[C@@H]2O[C@H](CO)[C@@H](O)[C@H](O)[C@H]2O[C@H]2C[C@](C)(NC(=O)CC(C)c3cccs3)[C@H](O)[C@H](C)O2)Oc2ccc(cc2Cl)[C@H]1O (stereo partly shown)" target_of_assay="Streptococcus pneumoniae" display_unit=mg/kg/2 assay_result=2.3

Data credit: patent US4643987A
